Assign Plant Response Index (A) to each entry below.
system: Canada Thistle; test: post-emergence herbicidal activity, greenhouse; type: in vivo; details: Table II; 2 WAT; 11.2 kg/h; formulated in anhydrous tetrahydrofuran

Recorded Plant Response Index (A) of CCOC(=O)CNCP(=O)(O)O[Si](c1ccccc1)(c1ccccc1)C(C)(C)C , please. 1 (25-49% inhibition)

What does the record list as Plant Response Index (A) for CCCCOC(=O)CNCP(=O)(O)O[Si](c1ccccc1)(c1ccccc1)C(C)(C)C ? 0 (0-24% inhibition)

So what does the record say about Plant Response Index (A) for CC(C)(C)[Si](OP(=O)(O)CNCC(=O)O)(c1ccccc1)c1ccccc1 ? 0 (0-24% inhibition)

// Plant Response Index (A) lookup, key: CCCCOC(=O)CNCP(=O)(O)O[Si](C)(C)C(C)(C)C 1 (25-49% inhibition)

---

tested on: Common Lambsquarters; test: post-emergence herbicidal activity, greenhouse; assay type: in vivo; details: Table II; 2 WAT; 5.6 kg/h
Property: Plant Response Index (E)

So what does the record say about Plant Response Index (E) for CC(C)(C)[Si](OP(=O)(O)CNCC(=O)O)(c1ccccc1)c1ccccc1 [Ex. 5] ? 1 (25-49% inhibition)

Please report the recorded Plant Response Index (E) for CC(C)(C)[Si](OP(=O)(O)CNCC(=O)OCCCl)(c1ccccc1)c1ccccc1 [Ex. 8, Hydrate] . 2 (50-74% inhibition)

Recorded Plant Response Index (E) of CCCCOC(=O)CNCP(=O)(O)O[Si](c1ccccc1)(c1ccccc1)C(C)(C)C [Ex. 6] , please. 2 (50-74% inhibition)

Requested read-out: Plant Response Index (E). Entry: CCOC(=O)CNCP(=O)(O)O[Si](c1ccccc1)(c1ccccc1)C(C)(C)C [Ex. 7] 3 (75-99% inhibition)

---

system: Velvetleaf; test: post-emergence herbicidal activity, greenhouse; assay type: in vivo; details: Table III; 4 WAT; 5.6 kg/h; formulated in anhydrous tetrahydrofuran
Property: Plant Response Index (C)

Missing value: Plant Response Index (C), Velvetleaf, entry CCCCOC(=O)CNCP(=O)(O)O[Si](C)(C)C(C)(C)C [Ex. 3] . Fill in? 4 (100% inhibition)

Recorded Plant Response Index (C) for CCCCOC(=O)CNCP(=O)(O)O[Si](c1ccccc1)(c1ccccc1)C(C)(C)C [Ex. 6] with Velvetleaf, please? 2 (50-74% inhibition)

I'm curious: which Plant Response Index (C) was measured for CCOC(=O)CNCP(=O)(O)O[Si](c1ccccc1)(c1ccccc1)C(C)(C)C [Ex. 7] tested on Velvetleaf? 3 (75-99% inhibition)

Find Plant Response Index (C) (Velvetleaf) for the entry CC(C)(C)[Si](OP(=O)(O)CNCC(=O)O)(c1ccccc1)c1ccccc1 [Ex. 5] 0 (0-24% inhibition)

---

system: Large Crabgrass; test: post-emergence herbicidal activity, greenhouse; assay type: in vivo; settings: Table III; 2 WAT; 1.1 kg/h; formulated in anhydrous tetrahydrofuran
Consider the following compounds; for each one, report its Plant Response Index (T).

So what does the record say about Plant Response Index (T) for CCCCOC(=O)CNCP(=O)(O)O[Si](C)(C)C(C)(C)C ? 3 (75-99% inhibition)

Plant Response Index (T) lookup needed for CCOC(=O)CNCP(=O)(O)O[Si](c1ccccc1)(c1ccccc1)C(C)(C)C , thanks. 3 (75-99% inhibition)

What value of measured Plant Response Index (T) is listed for CC(C)(C)[Si](OP(=O)(O)CNCC(=O)O)(c1ccccc1)c1ccccc1 ? 0 (0-24% inhibition)

Returns the measured Plant Response Index (T) for the input compound. Input: CCCCOC(=O)CNCP(=O)(O)O[Si](c1ccccc1)(c1ccccc1)C(C)(C)C 4 (100% inhibition)

---

Would you kindly list Plant Response Index (S) for each of these compounds?
system: Panicum Spp; test: post-emergence herbicidal activity, greenhouse; format: in vivo; conditions: Table III; 4 WAT; 5.6 kg/h; formulated in anhydrous tetrahydrofuran

Item under review: CCCCOC(=O)CNCP(=O)(O)O[Si](C)(C)C(C)(C)C . Reported Plant Response Index (S)? 3 (75-99% inhibition)

Which Plant Response Index (S) reading was recorded for the compound CC(C)(C)[Si](OP(=O)(O)CNCC(=O)O)(c1ccccc1)c1ccccc1 ? 0 (0-24% inhibition)

GET /values?readout=Plant Response Index (S)&item= CCOC(=O)CNCP(=O)(O)O[Si](c1ccccc1)(c1ccccc1)C(C)(C)C 4 (100% inhibition)

What measured Plant Response Index (S) goes with CCCCOC(=O)CNCP(=O)(O)O[Si](c1ccccc1)(c1ccccc1)C(C)(C)C ? 3 (75-99% inhibition)

---

For each record, write down the corresponding Plant Response Index (J).
tested on: Downy Brome; experiment: post-emergence herbicidal activity, greenhouse; format: in vivo; conditions: Table III; 2 WAT; 1.1 kg/h; formulated in anhydrous tetrahydrofuran

What is its Plant Response Index (J) for Downy Brome? Entry: CCOC(=O)CNCP(=O)(O)O[Si](c1ccccc1)(c1ccccc1)C(C)(C)C [Ex. 7] 1 (25-49% inhibition)

Give recorded Plant Response Index (J) with Downy Brome for the following molecule: CC(C)(C)[Si](OP(=O)(O)CNCC(=O)O)(c1ccccc1)c1ccccc1 [Ex. 5] 0 (0-24% inhibition)

Fill in the recorded Plant Response Index (J) for this molecule, with Downy Brome as test system: CCCCOC(=O)CNCP(=O)(O)O[Si](c1ccccc1)(c1ccccc1)C(C)(C)C [Ex. 6] 1 (25-49% inhibition)

Lab note: need Plant Response Index (J) with Downy Brome for entry CCCCOC(=O)CNCP(=O)(O)O[Si](C)(C)C(C)(C)C [Ex. 3] , please look it up. 1 (25-49% inhibition)

---

Would you kindly list Plant Response Index (F) for each of these compounds?
system: Pennsylvania Smartweed; assay: post-emergence herbicidal activity, greenhouse; type: in vivo; settings: Table II; 2 WAT; 11.2 kg/h; formulated in anhydrous tetrahydrofuran

Please look up its Plant Response Index (F): CCCCOC(=O)CNCP(=O)(O)O[Si](c1ccccc1)(c1ccccc1)C(C)(C)C 0 (0-24% inhibition)

What value of Plant Response Index (F) has been recorded for this entry: CCCCOC(=O)CNCP(=O)(O)O[Si](C)(C)C(C)(C)C 2 (50-74% inhibition)

Given CC(C)(C)[Si](OP(=O)(O)CNCC(=O)O)(c1ccccc1)c1ccccc1 , state its recorded Plant Response Index (F). 0 (0-24% inhibition)

Report Plant Response Index (F) for CCOC(=O)CNCP(=O)(O)O[Si](c1ccccc1)(c1ccccc1)C(C)(C)C please. 1 (25-49% inhibition)

---

tested on: Johnsongrass; assay: post-emergence herbicidal activity, greenhouse; type: in vivo; conditions: Table II; 2 WAT; 5.6 kg/h
Property: Plant Response Index (I)

For the compound shown here, CCCCOC(=O)CNCP(=O)(O)O[Si](c1ccccc1)(c1ccccc1)C(C)(C)C , give the reported Plant Response Index (I). 0 (0-24% inhibition)

Item CC(C)(C)[Si](OP(=O)(O)CNCC(=O)O)(c1ccccc1)c1ccccc1 has what recorded Plant Response Index (I)? 0 (0-24% inhibition)

Quick one: Plant Response Index (I) for CC(C)(C)[Si](OP(=O)(O)CNCC(=O)OCCCl)(c1ccccc1)c1ccccc1 [Ex. 8, Hydrate] ? 0 (0-24% inhibition)

Record request: Plant Response Index (I) value, item CCOC(=O)CNCP(=O)(O)O[Si](c1ccccc1)(c1ccccc1)C(C)(C)C 3 (75-99% inhibition)

---

Hi there, I'd appreciate the recorded Plant Response Index (E) for every entry that follows.
test system: Common Lambsquarters; assay: post-emergence herbicidal activity, greenhouse; assay type: in vivo; settings: Table II; 4 WAT; 11.2 kg/h

Request the reported Plant Response Index (E) associated with CC(C)(C)[Si](OP(=O)(O)CNCC(=O)O)(c1ccccc1)c1ccccc1 2 (50-74% inhibition)

Please report the recorded Plant Response Index (E) for CCCCOC(=O)CNCP(=O)(O)O[Si](c1ccccc1)(c1ccccc1)C(C)(C)C . 4 (100% inhibition)

# query: Plant Response Index (E) of entry CC(C)(C)[Si](OP(=O)(O)CNCC(=O)OCCCl)(c1ccccc1)c1ccccc1 [Ex. 8, Hydrate] 1 (25-49% inhibition)

Can you share its Plant Response Index (E)? I mean this compound: CCOC(=O)CNCP(=O)(O)O[Si](c1ccccc1)(c1ccccc1)C(C)(C)C 4 (100% inhibition)

---

tested on: Velvetleaf; test: post-emergence herbicidal activity, greenhouse; format: in vivo; conditions: Table III; 2 WAT; .28 kg/h; formulated in anhydrous tetrahydrofuran
Property: Plant Response Index (C)

Record request: Plant Response Index (C) value, item CCCCOC(=O)CNCP(=O)(O)O[Si](C)(C)C(C)(C)C 1 (25-49% inhibition)

Entry CC(C)(C)[Si](OP(=O)(O)CNCC(=O)O)(c1ccccc1)c1ccccc1 has what Plant Response Index (C)? 0 (0-24% inhibition)

// lookup Plant Response Index (C) for CCOC(=O)CNCP(=O)(O)O[Si](c1ccccc1)(c1ccccc1)C(C)(C)C 1 (25-49% inhibition)

# query: Plant Response Index (C) of entry CCCCOC(=O)CNCP(=O)(O)O[Si](c1ccccc1)(c1ccccc1)C(C)(C)C 0 (0-24% inhibition)
